- TGT: Non-receptor tyrosine-protein kinase TNK1 (Homo sapiens) (UniProt Q13470)
- Sequence (Q13470 whole entry): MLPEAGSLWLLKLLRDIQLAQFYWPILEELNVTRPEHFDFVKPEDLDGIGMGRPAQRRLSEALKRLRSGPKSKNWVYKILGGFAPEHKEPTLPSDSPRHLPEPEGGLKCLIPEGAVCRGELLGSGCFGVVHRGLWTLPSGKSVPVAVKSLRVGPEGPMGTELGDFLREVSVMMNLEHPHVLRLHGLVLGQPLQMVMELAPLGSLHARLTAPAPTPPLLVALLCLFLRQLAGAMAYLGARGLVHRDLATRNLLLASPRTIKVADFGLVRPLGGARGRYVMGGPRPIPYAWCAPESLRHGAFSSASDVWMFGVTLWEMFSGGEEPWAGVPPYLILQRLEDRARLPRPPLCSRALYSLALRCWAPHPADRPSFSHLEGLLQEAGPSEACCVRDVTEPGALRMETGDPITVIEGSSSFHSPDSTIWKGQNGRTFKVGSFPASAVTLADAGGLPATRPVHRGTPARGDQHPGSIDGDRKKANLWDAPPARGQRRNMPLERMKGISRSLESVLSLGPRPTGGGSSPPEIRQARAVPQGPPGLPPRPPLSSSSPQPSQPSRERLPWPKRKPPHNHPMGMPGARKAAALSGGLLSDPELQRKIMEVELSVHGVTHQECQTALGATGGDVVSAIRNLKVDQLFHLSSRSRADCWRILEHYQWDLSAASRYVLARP
- CONDITION LABEL: at 1 µM
MEASUREMENT KIND: inhibition (%)
Report the value in % with no unit label.

Example compounds with recorded inhibition:
CNC(=O)c1cccc(C#Cc2cncnc2Nc2ccc(OCc3cccc(F)c3)c(Cl)c2)c1 :: 10.8
CN1CCC(n2cnc(-c3ccc(F)cc3)c2-c2ccnc(N)n2)CC1 :: 8.96
COC(=O)Nc1nc2ccc(Oc3ccc(NC(=O)Nc4cccc(Cl)c4)cc3)cc2[nH]1 :: 7.76
CCCN(CCS(C)(=O)=O)Cc1ccc(-c2ccc3ncnc(Nc4ccc(OCc5cccc(F)c5)c(Cl)c4)c3c2)o1 :: 12

Data request: What does the record list as inhibition for CCn1c(-c2nonc2N)nc2cnc(Oc3cccc(NC(=O)c4ccc(N(C)C)cc4)c3)cc21 ?
Data returned: 6.93

====

- TGT: Serine/threonine-protein kinase D3 (Homo sapiens) (UniProt O94806)
- Sequence (O94806 whole entry): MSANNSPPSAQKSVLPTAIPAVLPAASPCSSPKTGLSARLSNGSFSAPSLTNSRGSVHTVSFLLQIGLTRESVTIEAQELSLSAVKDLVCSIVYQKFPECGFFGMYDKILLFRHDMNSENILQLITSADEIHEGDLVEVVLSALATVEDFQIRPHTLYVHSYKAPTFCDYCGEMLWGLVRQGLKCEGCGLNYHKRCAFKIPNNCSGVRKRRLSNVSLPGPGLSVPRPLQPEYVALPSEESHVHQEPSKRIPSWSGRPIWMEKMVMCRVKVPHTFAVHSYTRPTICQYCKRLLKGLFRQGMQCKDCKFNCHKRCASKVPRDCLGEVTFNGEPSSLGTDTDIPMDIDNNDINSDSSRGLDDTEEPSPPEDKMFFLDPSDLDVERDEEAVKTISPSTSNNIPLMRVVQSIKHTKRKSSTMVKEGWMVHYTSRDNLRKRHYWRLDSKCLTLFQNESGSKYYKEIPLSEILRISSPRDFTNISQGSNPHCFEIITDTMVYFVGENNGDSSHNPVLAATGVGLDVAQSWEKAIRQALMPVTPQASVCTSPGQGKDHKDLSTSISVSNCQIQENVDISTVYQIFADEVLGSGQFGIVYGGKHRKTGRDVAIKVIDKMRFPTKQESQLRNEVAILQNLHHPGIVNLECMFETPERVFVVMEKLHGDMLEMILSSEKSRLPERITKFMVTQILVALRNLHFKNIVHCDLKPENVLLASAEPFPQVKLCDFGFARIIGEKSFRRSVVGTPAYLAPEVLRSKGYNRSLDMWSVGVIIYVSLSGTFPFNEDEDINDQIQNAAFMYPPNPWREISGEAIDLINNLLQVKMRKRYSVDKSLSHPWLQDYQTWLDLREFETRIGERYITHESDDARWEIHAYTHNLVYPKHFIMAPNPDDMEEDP
- CONDITION LABEL: at 0.1 µM
MEASUREMENT KIND: inhibition
Remember to follow the number with its unit.

CN1CCC(n2cnc(-c3ccc(F)cc3)c2-c2ccnc(N)n2)CC1 :: 2.68%
COc1cc2c(cc1Nc1nc(Nc3ccsc3C(N)=O)c3cc[nH]c3n1)N(C(=O)CN(C)C)CCC2(C)C :: 19.8%
Fc1cccc(COc2ccc(Nc3ncnc4sc(-c5ccco5)cc34)cc2Cl)c1 :: 5.28%
COc1cccc(-c2c[nH]c3c(N/N=C/c4ccncc4)ncnc23)c1 :: 1.85%
COc1cc(Nc2nccc(Nc3ccc4c(C)n[nH]c4c3)n2)cc(OC)c1OC :: 1.3%

Data request: Suppose we examine the compound COc1ccc(-c2cc(-c3c[nH]nc3-c3ccccn3)ccn2)cc1 ; what inhibition value has been reported?
Data returned: 7.96%

Data request: # repeat for O=S(=O)(CCNCc1ccc(-c2ccc3ncnc(Nc4ccc(OCc5cccc(F)c5)c(Cl)c4)c3c2)o1)c1ccccc1
Data returned: 5.12%

Data request: Now try O=C(O[C@H]1CN[C@H](C#Cc2cc3ncnc(Nc4ccc(Cc5ccccc5)cc4)c3s2)C1)N1CCOCC1 .
Data returned: 1.99%

Data request: Then this compound: CC(C)COC(=O)c1ccc2c(c1)/C(=C/Nc1ccc(S(N)(=O)=O)cc1)C(=O)N2
Data returned: 1.74%

Data request: Next compound: CCn1c(-c2nonc2N)nc2cnc(Oc3cccc(NC(=O)c4ccc(N(C)C)cc4)c3)cc21
Data returned: 1.61%

Data request: Repeat for the following compound: COc1ccc2[nH]c3c4[nH]c5ccc(OC)cc5c4c4c(c3c2c1)C(=O)NC4=O
Data returned: 5.31%

Data request: Here is the next compound: COc1cc2ncn(-c3cc(OCc4ccccc4C(F)(F)F)c(C(=O)N(C)C)s3)c2cc1OC
Data returned: 0.07%

Data request: And for CC(=O)Nc1cccc(C#Cc2cncnc2Nc2ccc(OCc3cccc(F)c3)c(Cl)c2)c1 ?
Data returned: 2.13%

Data request: Try this compound too: CCCN(CCS(C)(=O)=O)Cc1ccc(-c2ccc3ncnc(Nc4ccc(OCc5cccc(F)c5)c(Cl)c4)c3c2)o1
Data returned: 1.29%

Data request: What do you get for Fc1ccc(-c2nn3ncccc3c2-c2ccnc(Nc3ccc4c(c3)OCCO4)n2)cc1 ?
Data returned: 8%

Data request: Ok, now CCn1c(-c2nonc2N)nc2ccccc21
Data returned: 2.15%

Data request: Repeat with CCCN1CCC(c2ccc(Nc3nc(Nc4cc(F)ccc4C(N)=O)c4cc[nH]c4n3)c(OC)c2)CC1
Data returned: 13.6%

Data request: Same question, Cc1ccc(O)cc1Nc1ccnc2cc(-c3ccccn3)ccc12 this time
Data returned: 5.74%

Data request: Same question, c1cc(-c2cnn3nc(N4CCOCC4)ccc23)nc(NC2CC2)n1 this time
Data returned: 5.91%
